Recorded values, source PubChem BioAssay (NCI).

Tested on: DU-145 prostate
Experiment: NCI tumour cell line growth inhibition, 48 h
QUANTITY KIND: GI50

// known answers, use as guide
                                   molecule       val
0  C=C(C)[C@@H]1CC[C@]2(C)[C@H](CC=C3[C@@H]4CC(C)(C)CC[C@]4(C(N)=O)CC[C@]32C)[C@@]1(C)CCC#N    4.8 µM
1  O=C(Cn1c[n+](CC(=O)c2ccc(-c3ccccc3)cc2)c2ccccc21)Nc1cccc2cccnc12   2.22 µM
2  O=C1Nc2ccccc2/C1=N\[O-].O=C1Nc2ccccc2/C1=N\[O-].[Cu+2]  > 100 µM
3  CCOC(=O)C(Cc1ccc(CCCC(=O)NCCC(=O)Nc2ccc3nc(C)sc3c2)cc1)C(=O)OCC   51.1 µM
4  COc1ccc(/C=C2/N=C(c3ccccc3)N(c3c(C)n(C)n(-c4ccccc4)c3=O)C2=O)cc1OC  > 100 µM

Challenge: Which GI50 value is on record for `C=CCCCCOc1ccccc1-c1cnc(OCCCCC=C)n1C` ?
Response given: 5.68 µM

Challenge: Can you look up the measured GI50 of `CS(=O)(=O)CCNCc1nc(-c2ccc3ncnc(Nc4ccc(OCc5cccc(C(F)(F)F)c5)cc4)c3c2)cs1` for me?
Response given: > 17.7 µM

Challenge: GI50 for COc1cc(F)ccc1-c1ncnc(Nc2cccc(CS(C)(=N)=O)c2)n1 (centres undefined) ?
Response given: 0.784 µM

Challenge: // query GI50 value for entry `Cc1nn(-c2ccc(Cl)cc2)c2nc3c(nc12)C(=O)c1ccccc1-3`
Response given: > 100 µM

====

Test system: OVCAR-5 ovarian
Assay: NCI tumour cell line growth inhibition, 48 h
Listed below: GI50 values for each entry.

Consider the reported GI50 for these molecules:
                                   molecule       val
0  CS(=O)(=O)CCNCc1nc(-c2ccc3ncnc(Nc4ccc(OCc5cccc(C(F)(F)F)c5)cc4)c3c2)cs1   > 25 µM
1  COc1ccc(-c2nn(-c3ccc(NC(=O)c4ccc(Cl)c(Cl)c4)cc3)cc2-c2ccncc2)cc1Cl   3.24 µM
2                O=C(c1ccccc1)c1cc2ccccc2o1  > 100 µM

Challenge: Which value of GI50 has been reported for `Cc1ccc(NC(=O)CC2CC2)cc1-c1ccc(C(=O)NCC2CC2)cc1` in the records?
Response given: > 25 µM

Challenge: What value of GI50 has been recorded for this entry: CCC(/C=C/C1OC(=O)C=CC1C)=C\C(C)C/C=C/C(C)=C/C(C)C(=O)C(C)C(O)C(C)C/C(C)=C/C(=O)O (stereo not given)
Response given: < 1e-06 µM

Challenge: Return reported GI50; argument: `O=C1C=CC(=O)c2cc3cc(CBr)ccc3cc21`
Response given: 9.96 µM

====

Test system: RXF 393 renal
Assay: NCI tumour cell line growth inhibition, 48 h
QUANTITY KIND: TGI

Here is how some compounds turned out for TGI.
>>> print(df.to_string())
                                   compound      tested_on  quantity_kind       val
0  O=C(CC1(O)C(=O)N(Cc2ccccc2)c2ccc(F)cc21)c1ccc(C(=O)NCC2CCC3(CC2)OOC2(CCCCC2)OO3)cc1 (centres undefined)  RXF 393 renal            TGI  0.851 µM
1  COc1ccc(C(OCC2OC(n3cc(C)c(=O)[nH]c3=O)CC2n2cc(Cn3cc(Cl)c(=O)[nH]c3=O)nn2)(c2ccccc2)c2ccccc2)cc1 (centres undefined)  RXF 393 renal            TGI  > 100 µM
2  O=C1/C(=C/c2ccccc2S)N=C(c2ccccc2)N1c1nc2c(Cl)cc(Cl)cc2s1  RXF 393 renal            TGI     58 µM
3                  NNC(=O)c1n[nH]nc1C(=O)NN  RXF 393 renal            TGI  > 100 µM
4  COc1ccc(/C=C2/N=C(c3ccccc3)N(c3c(C)n(C)n(-c4ccccc4)c3=O)C2=O)cc1OC  RXF 393 renal            TGI  > 100 µM

Challenge: Entry `N#CCCN(C(=O)Nc1ccccc1)[C@H]1CCCC[C@@H]1N(C(=O)Nc1ccccc1)c1ccccc1` , system RXF 393 renal: what TGI was measured?
Response given: > 100 µM

Challenge: Notebook: pull reported TGI for RXF 393 renal, entry `Cc1ncc(C(=O)Nc2ccc(CN3CCN(C)CC3)c(C(F)(F)F)c2)cc1C#Cc1cnc(N)c2ccncc12`
Response given: 1.87 µM

Challenge: Give recorded TGI with RXF 393 renal for the following compound: `CS(=O)(=O)CCNCc1nc(-c2ccc3ncnc(Nc4ccc(OCc5cccc(C(F)(F)F)c5)cc4)c3c2)cs1`
Response given: > 25 µM

Challenge: For the record `C1CN2CCN3CCN4CCN1[P+]243` , what value of TGI is listed for RXF 393 renal?
Response given: > 100 µM
